# key: entry, value: TGI
tested on: UO-31 renal; assay: NCI tumour cell line growth inhibition, 48 h
observedProperty: TGI

molecule=NS(=O)(=O)c1ccc(N=Nc2ccc(O)cc2)cc1 observedproperty=TGI testresult="> 100 µM"
molecule="Cc1cc(OP2(=O)NCc3ccncc3O2)ccc1Cl (stereo unspecified)" observedproperty=TGI testresult="> 100 µM"
molecule=C=C[C@@H]1CCC/C=C/[C@@H]2C[C@H](O)C[C@H]2[C@H](O)/C=C/C(=O)O1 observedproperty=TGI testresult="> 100 µM"
molecule="[N-]=[N+]=C1C(=O)C2CC3CC1CC2C3 (stereo unspecified)" observedproperty=TGI testresult="> 100 µM"
molecule="O=C(O)C(Cc1ccccc1)N=Cc1nc(-c2ccccc2)oc1O (stereo unspecified)" observedproperty=TGI testresult="> 100 µM"
molecule=CC(=O)OCCCCn1nncc1Cn1ccc(=O)n(Cc2cnnn2CCCCOC(C)=O)c1=O observedproperty=TGI testresult="> 100 µM"
molecule=CC(=O)N(N=O)c1ccc(N(N=O)C(C)=O)cc1 observedproperty=TGI testresult="> 100 µM"
molecule=CCCCCCCCCCNC(=S)OC observedproperty=TGI testresult="85.8 µM"
molecule=N#Cc1ccc2[nH]cc(Cc3c[nH]c4ccc(C#N)cc34)c2c1 observedproperty=TGI testresult="20.3 µM"
molecule=CSc1c(C(N)=S)c(N)nn1-c1ccccc1 observedproperty=TGI testresult="> 100 µM"
molecule=C[n+]1c2ccccc2n2c3ccccc3c(NCc3ccco3)c(C#N)c21 observedproperty=TGI testresult="7.63 µM"
molecule=C/C(=N\NC(=O)c1ccccc1O)c1c(O)cc(C)oc1=O observedproperty=TGI testresult="> 100 µM"
molecule="C/C(=N\\N)C(CN1CCOCC1)C(c1ccccc1)c1c(O)c2ccccc2oc1=O (stereo unspecified)" observedproperty=TGI testresult="> 100 µM"
molecule=Cc1ccc(N2C=Nn3c(nc4sc5c(c4c3=O)CCCC5)C2)cc1 observedproperty=TGI testresult="> 100 µM"
molecule=COC(=O)[C@@H](C)C[C@H](Cc1ccc(F)cc1)NC(=O)c1csc([C@@H](C[C@H](C(C)C)N(C)C(=O)[C@@H](NC(=O)[C@H]2CCCCN2C)C2CC2)OC(C)=O)n1 observedproperty=TGI testresult="> 25 µM"
molecule="COc1nc(NC2OC(COC(C)=O)C(OC(C)=O)C(OC(C)=O)C2OC(C)=O)c(N=C(C)C(C)=O)c(=O)n1C (stereo unspecified)" observedproperty=TGI testresult="> 100 µM"
molecule=Nc1nncc2n[nH]nc12 observedproperty=TGI testresult="> 100 µM"
molecule=Cc1ccc(F)c2[nH]c(-c3ccccc3)cc(=O)c12 observedproperty=TGI testresult="> 50.1 µM"
molecule=NC1=Nc2ccccc2Sc2nccn21 observedproperty=TGI testresult="63.9 µM"
molecule=FC(F)(F)c1cccc(Oc2ccc(Nc3ncnc4ccc(OCCCN5CCOCC5)cc34)cc2Cl)c1 observedproperty=TGI testresult="2.5 µM"
molecule=CC[C@H](C)[C@H](NC(=O)c1ncccn1)C(=O)N(C)[C@H](C[C@@H](OC(C)=O)c1nc(C(=O)N[C@@H](Cc2ccccc2)C[C@H](C)C(=O)OC)cs1)C(C)C observedproperty=TGI testresult="> 25 µM"
molecule=Cc1cccc2c(=O)c3c(sc12)c(NCCCN)nc1ccccc13 observedproperty=TGI testresult="2.29 µM"
molecule=CN1/C(=C\N=O)C(C)(C)N(O)C1(C)C observedproperty=TGI testresult="> 100 µM"
molecule=CCCC(=O)Oc1c2ccsc2c(OC(=O)CCC)c2ccsc12 observedproperty=TGI testresult="5.11 µM"
molecule=O=c1c2ccccc2ncn1COCc1ccccc1 observedproperty=TGI testresult="> 100 µM"
molecule=C[C@@H](c1ccccc1)N1C[C@@H](c2ccc3c(c2)OCO3)[C@@H]2C(=O)CCC[C@@H]21 observedproperty=TGI testresult="> 100 µM"
molecule=NC(=O)c1ccc(I)c([N+](=O)[O-])c1 observedproperty=TGI testresult="> 100 µM"
molecule=COC1=CC(c2ccc[nH]2)=N/C1=C\c1[nH]c(C)c(CC(=O)NCc2ccccc2)c1C observedproperty=TGI testresult="3.16 µM"
molecule=COc1ccc(C2=NN(C(C)=O)c3nc4ccccc4nc3O2)cc1 observedproperty=TGI testresult="90.4 µM"
molecule=CCSC1=N/C(=C\c2ccco2)C(Nc2ccc(C)cc2)=N1 observedproperty=TGI testresult="> 100 µM"
molecule=O=C(Nc1ccc(Cl)cc1)c1cc(NCc2cc(O)ccc2O)ccc1O observedproperty=TGI testresult="3.21 µM"
molecule=Fc1ccccc1-c1cc(=S)c2cc3c(cc2[nH]1)OCO3 observedproperty=TGI testresult="> 100 µM"
molecule=CCCC[C@H](CCc1ccccc1)N(C(=O)OC)N1CCC[C@H]1COC observedproperty=TGI testresult="35.4 µM"
molecule=Clc1ccc(-c2nnc(-c3nn(-c4ccccc4)c4nc5ccccc5nc34)o2)cc1 observedproperty=TGI testresult="> 100 µM"
molecule=O=C1NN(C(=O)c2ccccc2)C(c2ccc(Cl)c(Cl)c2)=C/C1=C\c1ccccc1[N+](=O)[O-] observedproperty=TGI testresult="6.7 µM"
molecule="COc1ccccc1N1C(=O)CSC1c1cccc(Oc2ccccc2)c1 (stereo unspecified)" observedproperty=TGI testresult="32.9 µM"
